- System: HG-3 cells
- protocol.description: alamarBlue cell viability assay
- condition.context: Homo sapiens, HG-3, 24 h, read-out: HG-3 IC50
IC50 vs 4 µM: less than gives True; not less than gives False.

Before answering, review these 3 worked examples.
Nc1nc(F)nc2c1ncn2[C@@H]1O[C@H](CO)[C@@H](O)[C@@H]1O [Fludarabine, fludarabine, reference compound]; False
O=C(/C=C/C12c3ccccc3C(c3ccccc31)C1C(=O)NC(=O)C12)c1ccc(F)cc1 (racemic) [Compound 23h]; False
O=C(c1ccccc1)c1ccc(N2C(=O)C3C4c5ccccc5C(/C=C/[N+](=O)[O-])(c5ccccc54)C3C2=O)cc1 (centres unmarked) [Compound 20c]; True

Task: Confirm or reject: IC50 of O=C(C=CC12c3ccccc3C(c3ccccc31)C1C(=O)NC(=O)C12)c1ccc(Br)cc1 (centres unmarked) [Compound 23a] lies strictly below 4 µM
Output: True

Task: Here's an entry: O=C(/C=C/C12c3ccccc3C(c3ccccc31)C1C(=O)NC(=O)C12)c1ccccc1 (centres unmarked) [Compound 23f] . Is its IC50 below 4 µM?
Output: True

* * *

- protocol.description: HPLC stability study in phosphate buffers
- Format: physicochemical
- condition.context: pH 7.4 buffer, 37 °C
observation.type: Half-life pH 7.4

Check out these entries, answers already filled in.
O=C(/C=C/C12c3ccccc3C(c3ccccc31)C1C(=O)NC(=O)C12)c1ccccn1 (stereo not drawn) [Compound 23n]; > 24 h
O=C(/C=C/C12c3ccccc3C(c3ccccc31)C1C(=O)N(c3ccccc3)C(=O)C12)c1ccc(F)cc1 (stereo not drawn) [Compound 24h]; > 24 h

Let's switch to this compound now.
Half-life pH 7.4 measured on O=C(/C=C/C12c3ccccc3C(c3ccccc31)C1C(=O)N(c3ccc(C(=O)c4ccccc4)cc3)C(=O)C12)c1ccc(Br)cc1 (stereo not drawn) [Compound 26a] = > 24 h

* * *

Parameter: cell viability. Scope: all listed entries.
- System: PGA-1 cells
- condition.context: 10 µM
// return numeric value only (unit: %, not printed)

Tested on PGA-1 cells, the item O=C(/C=C/C12c3ccccc3C(c3ccccc31)C1C(=O)N(c3ccc(C(=O)c4ccccc4)cc3)C(=O)C12)c1ccncc1 (stereo not drawn) [Compound 26m] showed cell viability equal to 17

Test item O=C(C=CC12c3ccccc3C(c3ccccc31)C1C(=O)N(c3ccc(Cl)cc3)C(=O)C12)c1ccc(Br)cc1 (stereo not drawn) [Compound 25a] ; PGA-1 cells; reported cell viability was 33

Summary line: O=C(C=CC12c3ccccc3C(c3ccccc31)C1C(=O)N(c3ccc(Cl)cc3)C(=O)C12)c1ccc(Cl)cc1 (stereo not drawn) [Compound 25l] , PGA-1 cells, reported cell viability = 24

For the compound O=C(/C=C/C12c3ccccc3C(c3ccccc31)C1C(=O)N(c3ccccc3)C(=O)C12)c1ccccc1 (stereo not drawn) [Compound 24f] , the measured cell viability on PGA-1 cells was 26

The measured cell viability that O=C(/C=C/C12c3ccccc3C(c3ccccc31)C1C(=O)NC(=O)C12)c1ccc(Cl)cc1 (racemic) [Compound 23l] showed for PGA-1 cells is 5

O=C(C=CC12c3ccccc3C(c3ccccc31)C1C(=O)N(c3ccc(Cl)cc3)C(=O)C12)c1ccco1 (stereo not drawn) [Compound 25o] on PGA-1 cells gives cell viability = 14
